# Test system: SW620 (colon)
# procedure summary: MTT cytotoxicity assay, 48 hours (Example 14)
# Format: cell-based, human
# condition parameters: SW620, 1 μM
Non-standard residues stand in square brackets, D forms with d. Residues, ends and D or L forms follow the SMILES beside them. *: point of attachment. Octanoyl = CCCCCCCC(=O)*; Ac5c = NC1(C(=O)O)CCCC1; Deg = CCC(N)(CC)C(=O)O; Aib = CC(C)(N)C(=O)O; Butyryl = CCCC(=O)*
measured quantity: Percentage cytotoxicity (%)
Give the quantity in %, number only.

1. CC(C)C[C@H](NC(=O)[C@H](Cc1c[nH]cn1)NC(=O)C1(NC(=O)[C@@H](NC(=O)[C@H](C)NC(=O)[C@H](Cc2c[nH]c3ccccc23)NC(=O)[C@H](CCC(N)=O)NC(=O)[C@H](N)Cc2ccccc2)C(C)C)CCCC1)C(N)=O [SEQ ID: 10, D-Phe-Gln-Trp-Ala-Val-Ac5c-His-Leu-NH2] (H-[dF]QWAV[Ac5c]HL-NH2; N-terminus assumed) = 22.2
2. CCC(CC)(NC(=O)[C@H](Cc1c[nH]c2ccccc12)NC(=O)[C@H](CCC(N)=O)NC(=O)[C@H](N)Cc1ccccc1)C(=O)N[C@H](C(=O)NCC(=O)N[C@@H](Cc1c[nH]cn1)C(=O)N[C@@H](CC(C)C)C(N)=O)C(C)C [SEQ ID: 9, D-Phe-Gln-Trp-Deg-Val-Gly-His-Leu-NH2] (H-[dF]QW[Deg]VGHL-NH2; N-terminus assumed) = 21.6
3. CCCCCCCC(=O)N[C@H](Cc1ccccc1)C(=O)N[C@@H](CCC(N)=O)C(=O)N[C@@H](Cc1c[nH]c2ccccc12)C(=O)N[C@@H](C)C(=O)N[C@H](C(=O)NC(C)(C)C(=O)N[C@@H](Cc1c[nH]cn1)C(=O)N[C@@H](CC(C)C)C(N)=O)C(C)C [SEQ ID: 12] (Octanoyl-[dF]QWAV[Aib]HL-NH2) = 22.6

// moving on: another record for Percentage cytotoxicity
Enquiry: Which Percentage cytotoxicity is reported for this molecule? CCCC(=O)N[C@H](Cc1ccccc1)C(=O)N[C@@H](CCC(N)=O)C(=O)N[C@@H](Cc1c[nH]c2ccccc12)C(=O)N[C@@H](C)C(=O)N[C@H](C(=O)NC(C)(C)C(=O)N[C@@H](Cc1c[nH]cn1)C(=O)N[C@@H](CC(C)C)C(N)=O)C(C)C [SEQ ID: 11] (Butyryl-[dF]QWAV[Aib]HL-NH2)
Return: 23.7
